Target: Muscarinic acetylcholine receptor M4 (Homo sapiens) (UniProt P08173)
Sequence (P08173 whole entry, looked up): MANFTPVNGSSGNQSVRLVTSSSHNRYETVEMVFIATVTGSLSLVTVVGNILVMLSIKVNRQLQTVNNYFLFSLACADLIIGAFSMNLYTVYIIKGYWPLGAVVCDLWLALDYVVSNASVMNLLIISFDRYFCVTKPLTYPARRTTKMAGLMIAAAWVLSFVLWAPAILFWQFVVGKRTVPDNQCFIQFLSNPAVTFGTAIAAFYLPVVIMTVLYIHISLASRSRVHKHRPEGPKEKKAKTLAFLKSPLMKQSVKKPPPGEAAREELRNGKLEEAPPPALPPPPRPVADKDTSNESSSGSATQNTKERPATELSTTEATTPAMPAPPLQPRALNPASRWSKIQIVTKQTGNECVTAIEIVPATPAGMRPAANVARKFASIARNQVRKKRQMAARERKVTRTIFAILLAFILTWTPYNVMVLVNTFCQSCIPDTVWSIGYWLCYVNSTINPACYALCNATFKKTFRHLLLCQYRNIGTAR
Experiment: M4-linked GIRK flux change, two-sided – cell-based, HEK293 M4/GIRK, thallium flux, BTC-AM, M4 allosteric agonist project, primary screen (AID 625);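 note: thallium influx through GIRK channels coupled to M4 in HEK293 cells with BTC-AM dye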
Conditions: at 10 µM, actives lie on both sides
measured_metric: fluorescence slope
A bare number is all that is needed in reply.

The observed fluorescence slope for `CCOC(=O)N1CCC(O)(c2cc(C)c(C)cc2C)CC1` when tested with Muscarinic acetylcholine receptor M4 (Homo sapiens) (UniProt P08173) stands at 0.00607

The observed fluorescence slope for CCOC(=O)c1sc(C)c2c1NC(C)(c1cccs1)NC2=O (stereo unspecified) when tested with Muscarinic acetylcholine receptor M4 (Homo sapiens) (UniProt P08173) stands at 0.00453

The observed fluorescence slope for CC(C)(C)n1nnnc1C(c1cccc(C#N)c1)N1CCC(Cc2ccccc2)CC1 (stereo unspecified) when tested with Muscarinic acetylcholine receptor M4 (Homo sapiens) (UniProt P08173) stands at 0.00477

Others:
The observed fluorescence slope for CCCCc1ccc(NC(=O)N[C@H](C(=O)O)C(C)CC)cc1 (stereo partly specified) when tested with Muscarinic acetylcholine receptor M4 (Homo sapiens) (UniProt P08173) stands at 0.00522

The observed fluorescence slope for `CC1(C)CC(=O)c2cc(OCC(=O)NCCCN3CCN(c4ccccc4F)CC3)ccc2O1` when tested with Muscarinic acetylcholine receptor M4 (Homo sapiens) (UniProt P08173) stands at 0.00645

The observed fluorescence slope for `CCN(CC)S(=O)(=O)c1ccc2oc(C(=O)O)c(C)c2c1` when tested with Muscarinic acetylcholine receptor M4 (Homo sapiens) (UniProt P08173) stands at 0.00522

====

Measured fluorescence slope, listed per entry for reference.
Molecular target: Muscarinic acetylcholine receptor M4 (Homo sapiens)
Assay: M4-linked GIRK flux change, two-sided – cell-based, HEK293 M4/GIRK, thallium flux, BTC-AM, M4 allosteric agonist project, primary screen (AID 625);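 note: thallium influx through GIRK channels coupled to M4 in HEK293 cells with BTC-AM dye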
Settings: at 10 µM, actives lie on both sides
A bare number is all that is needed in reply.

For this molecule ( `COc1cc2c(OC)cccc2cc1C(=O)O` ), measured fluorescence slope is 0.0045

For this molecule ( `CCSc1nc(C)nc2c1oc1ccccc12` ), measured fluorescence slope is 0.00861

For this molecule ( `O=C(CCN1CCN(c2ccc(F)cc2)CC1)Nc1ccccc1F` ), measured fluorescence slope is 0.00622

For this molecule ( `O=C(CCCCCn1c(=O)[nH]c2ccsc2c1=O)N1CCCCC1` ), measured fluorescence slope is 0.0042

For this molecule ( `Cc1cccc(N(CC(N)=O)S(C)(=O)=O)c1C` ), measured fluorescence slope is 0.00412

Others:
For this molecule ( `Cc1ccccc1Cn1nc(C)c(NC(=O)c2noc3c2CCCC3)c1C` ), measured fluorescence slope is 0.00499

For this molecule ( CCC(=O)N1CCc2cc(Br)cc(S(=O)(=O)CCC(=O)NCC3CCCO3)c21 (stereo unspecified) ), measured fluorescence slope is 0.00706

For this molecule ( `CCn1nc(C(=O)OCC(=O)c2cc(C)n(Cc3cccs3)c2C)c2ccccc2c1=O` ), measured fluorescence slope is 0.00739

For this molecule ( O=S(=O)(c1ccc(OCC(O)CN2CCN(c3ccccc3)CC2)cc1)N1CCOCC1 (stereo unspecified) ), measured fluorescence slope is 0.00626

For this molecule ( `COc1ccc(CNC(=O)Cn2nc(C(F)(F)F)c3c2CCC3)cc1` ), measured fluorescence slope is 0.00662

For this molecule ( CCOC(=O)C1=C(C)Nc2ncnn2C1c1ccccc1F (stereo unspecified) ), measured fluorescence slope is 0.00641
